Value source: patent US10112937B2

molecules and their reported PBMC 10 μM (% control)
- assayed target: human P2X7 (Homo sapiens (Human))
- measurement protocol: P2X7 antagonism in human PBMCs (IL-1β release after LPS + Bz-ATP, ELISA)
- Format: cell-based
- measurement context: human PBMCs, test compound 10 μM
property label: PBMC 10 μM (% control)

Cc1cc(-n2nnc3c2CCN(C(=O)c2ccnc(C(F)(F)F)c2Cl)[C@H]3C)ncc1F (single isomer, unassigned) [Example 372] ... 1.3
CC1c2nnn(-c3ncc(F)cn3)c2CCN1C(=O)c1cccc(Cl)c1Cl (centres unmarked) [Example 174] ... 4.2
O=C(c1cccc(Cl)c1Cl)N1CCc2c(nc(C(F)(F)F)n2-c2ccccc2)C1 [Example 58] ... −2.0
C[C@H]1Cc2c(nnn2-c2ncc(F)cn2)CN1C(=O)c1ccc(Cl)c(F)c1Cl (single isomer, unassigned) [Example 218] ... 6.1
CC1c2nnn(-c3cncnc3)c2CCN1C(=O)c1cccc(C(F)(F)F)c1Cl (centres unmarked) [Example 177] ... 8.6
C[C@H]1Cc2c(nnn2-c2ncc(F)cn2)CN1C(=O)c1ccnc(C(F)(F)F)c1F [Example 228] ... −1.1
Cc1c(C(=O)N2Cc3nnn(-c4ncc(F)cn4)c3C[C@H]2C)ccnc1C(F)(F)F (single isomer, unassigned) [Example 187] ... −0.6
Cc1cccc(-n2nnc3c2CCN(C(=O)c2cccc(C(F)(F)F)c2Cl)[C@H]3C)n1 (single isomer, unassigned) [Example 227] ... −0.4
Cc1ccnc(-n2nnc3c2CCN(C(=O)c2ccnc(C(F)(F)F)c2F)[C@H]3C)c1 (single isomer, unassigned) [Example 357] ... 42.4
CC1c2nnn(-c3ncccn3)c2CCN1C(=O)c1cccc(C(F)(F)F)c1Cl (single isomer, unassigned) [Example 88] ... 18.2
CCc1cccnc1-n1nnc2c1CCN(C(=O)c1cccc(C(F)(F)F)c1Cl)C2C (centres unmarked) [Example 254] ... 0.9
Cc1cc(C)nc(-n2nnc3c2CCN(C(=O)c2cccc(Cl)c2Cl)C3C)n1 (centres unmarked) [Example 179] ... −4.3
CC1Cc2c(nnn2-c2ncccc2F)CN1C(=O)c1cccc(C(F)(F)F)c1Cl (centres unmarked) [Example 122] ... 0.2
C[C@@H]1Cc2c(nnn2-c2ccn[nH]2)CN1C(=O)c1cccc(C(F)(F)F)c1F (single isomer, unassigned) [Example 348] ... 77.7
CC1CN(C(=O)c2cccc(C(F)(F)F)c2Cl)Cc2nnn(-c3ccccc3)c21 (centres unmarked) [Example 245] ... −7.3
C[C@H]1Cc2c(nnn2-c2ccn[nH]2)CN1C(=O)c1cccc(C(F)(F)F)c1F (single isomer, unassigned) [Example 349] ... 0.7
C[C@H]1Cc2c(nnn2-c2ncccc2F)CN1C(=O)c1cccc(Cl)c1Cl (single isomer, unassigned) [Example 166] ... 0.6
Cc1ccnc(-n2nnc3c2CCN(C(=O)c2cccc(Cl)c2Cl)[C@@H]3C)c1 (single isomer, unassigned) [Example 394] ... 6.2
C[C@@H]1c2ncn(-c3ccc(F)cc3)c2CCN1C(=O)c1cccc(C(F)(F)F)c1Cl (single isomer, unassigned) [Example 46] ... 2.1
Cc1cc(-n2nnc3c2CCN(C(=O)c2cccc(C(F)(F)F)c2Cl)[C@@H]3C)ncc1F (single isomer, unassigned) [Example 382] ... −2.7
C[C@@H]1Cc2c(nnn2-c2ccccn2)CN1C(=O)c1cccc(C(F)(F)F)c1Cl (single isomer, unassigned) [Example 119] ... 20.0
O=C(c1cccc(C(F)(F)F)c1Cl)N1CCc2c(nnn2-c2ncccn2)C1 [Example 65] ... 5.8
O=C(c1ccc(Cl)cc1F)N1CCc2c(nnn2-c2cnccn2)C1 [Example 272] ... −7.6
CC1Cc2c(nnn2-c2ccc(F)cc2)C(C)N1C(=O)c1cccc(Cl)c1Cl (centres unmarked) [Example 242] ... −3.4
C[C@@H]1c2n[nH]c(-c3ncc(F)cn3)c2CCN1C(=O)c1cccc(C(F)(F)F)c1Cl (single isomer, unassigned) [Example 223] ... 1.8
C[C@H]1c2nnn(-c3ncc(F)cn3)c2CCN1C(=O)c1cccc(C(F)(F)F)c1Cl (single isomer, unassigned) [Example 157] ... −1.4
CC1c2nnn(-c3ncc[nH]3)c2CCN1C(=O)c1cccc(C(F)(F)F)c1Cl (centres unmarked) [Example 393] ... 8.5
CC1c2ncn(-c3ncccc3F)c2CCN1C(=O)c1cccc(C(F)(F)F)c1Cl (centres unmarked) [Example 21] ... 1.6
O=C(c1cccc(C(F)(F)F)c1F)N1CCc2c(nnn2-c2cnccn2)C1 [Example 69] ... 6.8

###

- assayed target: UniProt:Q99572
- measurement protocol: P2X7 antagonism in human PBMCs (IL-1β release after LPS + Bz-ATP, ELISA)
- Format: cell-based
- measurement context: human PBMCs, test compound 10 μM
compounds and their reported PBMC 10 μM (% control)
property label: PBMC 10 μM (% control)

CC1Cc2c(nnn2-c2ccc(F)cc2)C(C)N1C(=O)c1cccc(C(F)(F)F)c1Cl (stereo not drawn) [Example 243] ... 1.0
Cc1cccc(-n2nnc3c2CCN(C(=O)c2cccc(C(F)(F)F)c2F)[C@H]3C)n1 (single isomer, unassigned) [Example 387] ... 8.4
Cc1ccnc(-n2nnc3c2CCN(C(=O)c2cccc(C(F)(F)F)c2Cl)[C@H]3C)c1 (single isomer, unassigned) [Example 186] ... −0.5
CC1c2nnn(-c3ncccn3)c2CCN1C(=O)c1cccc(C(F)(F)F)c1Cl (stereo not drawn) [Example 80] ... 4.6
C[C@H]1c2ncn(-c3ccccn3)c2CCN1C(=O)c1cccc(Cl)c1Cl (single isomer, unassigned) [Example 191] ... 5.2
CC1c2nnn(-c3cnccn3)c2CCN1C(=O)c1ccc(Cl)cc1F (stereo not drawn) [Example 274] ... −4.8
CC1c2ncn(-c3ncccn3)c2CCN1C(=O)c1cccc(C(F)(F)F)c1Cl (stereo not drawn) [Example 23] ... 6.4
C[C@H]1c2nnn(-c3ccn(C)n3)c2CCN1C(=O)c1cccc(C(F)(F)F)c1Cl (single isomer, unassigned) [Example 170] ... −5.7
O=C(c1cccc(C(F)(F)F)c1Cl)N1CCc2c(nnn2-c2cc(F)ccn2)C1 [Example 131] ... 8.3
Cc1ccnc(-n2nnc3c2CCN(C(=O)c2cccc(C(F)(F)F)c2Cl)C3C)n1 (stereo not drawn) [Example 252] ... −0.8
CC1Cc2c(nnn2-c2ncc(F)cn2)CN1C(=O)c1cccc(Cl)c1Cl (stereo not drawn) [Example 203] ... 0.6
Cc1cc(C)nc(-n2nnc3c2CCN(C(=O)c2cccc(C(F)(F)F)c2Cl)[C@@H]3C)n1 (single isomer, unassigned) [Example 181] ... −0.1
CC1CN(C(=O)c2cccc(C(F)(F)F)c2Cl)C(C)c2nnn(-c3ccccc3)c21 (stereo not drawn) [Example 241] ... 6.5
CC1c2ncn(-c3ccc(F)cn3)c2CCN1C(=O)c1ccc(F)cc1Cl (stereo not drawn) [Example 256] ... 7.1
Cc1c(C(=O)N2CCc3c(ncn3-c3ccc(F)cn3)C2C)cccc1C(F)(F)F (stereo not drawn) [Example 263] ... −1.6

###

- assayed target: human P2X7 (Homo sapiens (Human), UniProt Q99572)
- Sequence (Q99572 whole entry): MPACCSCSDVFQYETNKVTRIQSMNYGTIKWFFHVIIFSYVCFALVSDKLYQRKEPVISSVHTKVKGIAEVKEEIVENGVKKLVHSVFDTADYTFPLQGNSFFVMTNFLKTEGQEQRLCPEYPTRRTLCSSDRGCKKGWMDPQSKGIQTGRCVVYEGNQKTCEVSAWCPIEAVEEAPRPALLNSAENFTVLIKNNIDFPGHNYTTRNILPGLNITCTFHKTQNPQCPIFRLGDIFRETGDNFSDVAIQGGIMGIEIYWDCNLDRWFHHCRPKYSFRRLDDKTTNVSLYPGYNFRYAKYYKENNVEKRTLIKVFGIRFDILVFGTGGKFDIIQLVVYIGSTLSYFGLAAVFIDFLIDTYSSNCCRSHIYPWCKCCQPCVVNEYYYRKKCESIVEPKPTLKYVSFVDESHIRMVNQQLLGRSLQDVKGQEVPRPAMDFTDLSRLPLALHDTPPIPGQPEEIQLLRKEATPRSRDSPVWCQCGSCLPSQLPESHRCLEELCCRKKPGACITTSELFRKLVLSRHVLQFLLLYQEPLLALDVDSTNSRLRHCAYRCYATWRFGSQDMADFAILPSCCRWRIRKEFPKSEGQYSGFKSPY
- measurement protocol: Ca2+ flux (FLIPR) in 1321N1 cells expressing recombinant human P2X7;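 further: cells loaded with Calcium-4 dye, preincubated with test compound for 30 min, fluorescence change read 180 s after agonist addition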
- Assay type: cell-based
- measurement context: 1321N1 cells, recombinant human P2X7, 250 μM BzATP
pIC50: −log10 of the molar value.
compounds and their reported pIC50
property label: pIC50

CCOC(=O)C1c2ncn(-c3cnccn3)c2CCN1C(=O)c1cccc(C(F)(F)F)c1Cl (centres unmarked) ... 8.19
O=C(c1cccc(Cl)c1Cl)N1CCc2c(nnn2-c2ncccn2)C1 ... 8.70
O=C(OCC1c2ncn(-c3ccccc3)c2CCN1C(=O)c1cccc(C(F)(F)F)c1Cl)c1cccc(C(F)(F)F)c1Cl (centres unmarked) ... 5.47
Cc1nccc(-n2nnc3c2CCN(C(=O)c2cccc(C(F)(F)F)c2Cl)C3C)n1 (centres unmarked) ... 6.27
Cc1cc(-n2nnc3c2CCN(C(=O)c2cccc(C(F)(F)F)c2Cl)C3C)ncn1 (centres unmarked) ... 6.06
Cc1cc(-n2nnc3c2CCN(C(=O)c2ccnc(C(F)(F)F)c2Cl)C3C)ncn1 (centres unmarked) ... 6.36
Cc1c(C(=O)N2CCc3c(ncn3-c3ccc(F)cn3)C2C)cccc1C(F)(F)F (centres unmarked) ... 7.76
CC1c2nnn(-c3cccc(C(F)(F)F)n3)c2CCN1C(=O)c1cccc(C(F)(F)F)c1Cl (centres unmarked) ... 7.10

###

- assayed target: human P2X7 (Homo sapiens (Human), UniProt Q99572)
- measurement protocol: P2X7 antagonism in human PBMCs (IL-1β release after LPS + Bz-ATP, ELISA)
- Type: cell-based
- measurement context: human PBMCs, test compound 10 μM
molecules and their reported PBMC 10 μM (% control)
property label: PBMC 10 μM (% control)

CC1Cc2c(nnn2-c2ccccc2)C(C)N1C(=O)c1cccc(C(F)(F)F)c1Cl (centres unmarked) ... −8.9
CC1CN(C(=O)c2cccc(C(F)(F)F)c2Cl)Cc2nnn(-c3ccc(F)cc3)c21 (centres unmarked) ... −3.1
Cc1ccc(-n2nnc3c2CCN(C(=O)c2cccc(C(F)(F)F)c2Cl)C3C)nc1 (centres unmarked) ... −2.2
Cc1ccnc(-n2nnc3c2CCN(C(=O)c2cccc(OC(F)(F)F)c2)C3C)c1 (centres unmarked) [Example 375] ... 63.3
C[C@@H]1c2ncn(-c3ccccn3)c2CCN1C(=O)c1cccc(Cl)c1Cl (single isomer, unassigned) ... −6.3
O=C(c1cccc(Cl)c1Cl)N1CCc2c(ncn2-c2ccccn2)C1 ... −3.7
Cc1cccc(-n2nnc3c2CCN(C(=O)c2cccc(C(F)(F)F)c2F)C3C)n1 (centres unmarked) ... 12.4
Cc1cccc(-n2nnc3c2CCN(C(=O)c2cccc(C(F)(F)F)c2F)[C@@H]3C)n1 (single isomer, unassigned) ... 107.5
